Attribution: PubChem BioAssay AID488969

Assayed Target: Metabotropic glutamate receptor 8 (Rattus norvegicus) (UniProt P70579)
Sequence (P70579 whole entry, looked up): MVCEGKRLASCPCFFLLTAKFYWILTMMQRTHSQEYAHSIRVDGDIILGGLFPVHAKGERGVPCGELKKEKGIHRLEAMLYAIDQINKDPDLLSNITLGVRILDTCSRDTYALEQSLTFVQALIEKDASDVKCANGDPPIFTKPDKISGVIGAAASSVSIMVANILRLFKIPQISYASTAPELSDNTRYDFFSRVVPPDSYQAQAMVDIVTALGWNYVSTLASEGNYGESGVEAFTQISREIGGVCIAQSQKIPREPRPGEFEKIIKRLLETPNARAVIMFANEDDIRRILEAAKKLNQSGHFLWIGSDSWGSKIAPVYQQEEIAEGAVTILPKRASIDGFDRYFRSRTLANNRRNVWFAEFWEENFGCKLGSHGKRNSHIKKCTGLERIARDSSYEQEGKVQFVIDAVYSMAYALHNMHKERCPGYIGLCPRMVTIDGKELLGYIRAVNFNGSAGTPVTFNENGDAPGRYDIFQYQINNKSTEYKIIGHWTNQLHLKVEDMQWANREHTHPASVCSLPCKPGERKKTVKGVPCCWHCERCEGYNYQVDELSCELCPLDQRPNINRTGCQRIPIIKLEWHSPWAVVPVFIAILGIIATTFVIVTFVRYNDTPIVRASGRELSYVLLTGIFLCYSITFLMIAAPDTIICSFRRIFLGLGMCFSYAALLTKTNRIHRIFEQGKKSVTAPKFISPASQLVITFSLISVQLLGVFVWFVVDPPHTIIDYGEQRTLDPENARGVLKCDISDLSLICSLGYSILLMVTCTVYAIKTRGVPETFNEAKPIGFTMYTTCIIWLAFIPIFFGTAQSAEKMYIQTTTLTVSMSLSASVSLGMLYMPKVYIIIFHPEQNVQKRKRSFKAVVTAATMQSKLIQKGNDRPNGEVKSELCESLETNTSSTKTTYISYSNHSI
Protocol Summary: mGluR8 Gi/Go-coupled signaling modulation – cell-based, rat, thallium flux, HTS, primary screen (AID 488969)
Setup Conditions: HEK293 rat mGluR8, GIRK thallium flux, FluoZin2; at 10 µM; stronger effect = higher value; submaximal glutamate (EC20) added with thallium
The full ranking holds about 110,000 compounds; the median of “z-score” is about -0.1, and the highest 2% start at about 2. Only a selection was taken, and the highest values are over-represented in it overall.
Param threshold (0.3) applies to z-score; output Met when value >= threshold, Not met when value < threshold.

compound=O=C1CN(c2ccccc2Cl)C(=O)CN1c1ccccc1Cl group=Met
compound="CC(=O)SC(C)CC(=O)NCc1ccccc1 (stereo unspecified)" group="Not met"
compound=CCCCn1c(-c2csc(C(C)C)c2)n[nH]c1=S group=Met
compound=O=c1c(-c2nnc(SCc3ccc(Cl)cc3)o2)cccn1Cc1ccccc1 group=Met
compound="CCCCCCOC(=O)C(C#N)c1nc2ccccc2nc1N1CCCCC1 (stereo unspecified)" group="Not met"
compound="Cc1noc(/C=C/N(C)C)c1S(=O)(=O)N1CCCC(C(=O)NC2CCCCC2)C1 (stereo unspecified)" group="Not met"
compound=COC(=O)c1ccc(C(=O)OC)c(NC(=O)CCc2ccc(C)o2)c1 group="Not met"
compound=COC(=O)c1cnn(-c2cc(Oc3cccc(C)c3)ncn2)c1N group=Met
compound="CCOC(=O)C1=C(C)Nc2sc(C(=O)c3ccc(C)cc3)c(N)c2C1c1ccc(C(=O)OC)cc1 (stereo unspecified)" group="Not met"
compound=c1ccc2c(NC3CCCC3)nnc(NC3CCCC3)c2c1 group=Met

Ask: Record CCOC(=O)c1c(NC2=NS(=O)(=O)c3ccccc32)sc2c1CCC(C)C2 (stereo unspecified) ; criterion: z-score no lower than 0.3. Met?
Reply: Not met

Ask: Record COC(=O)c1ccc(NC(=S)NC(=O)c2cc(-c3ccccc3)nc3ccccc23)cc1 ; criterion: z-score no lower than 0.3. Met?
Reply: Met

Ask: Record COC(=O)c1c(NC(=O)c2cccs2)sc2c1CCC(C)C2 (stereo unspecified) ; criterion: z-score no lower than 0.3. Met?
Reply: Not met

Ask: Record COc1ccc(C(=O)NCc2nnc(SCC(=O)NCc3ccc(F)cc3)o2)cc1 ; criterion: z-score no lower than 0.3. Met?
Reply: Not met

Ask: Record CCCCn1c(-c2cccnc2)n[nH]c1=S ; criterion: z-score no lower than 0.3. Met?
Reply: Not met

Ask: Record CC1CCC(NC(=O)CC2Oc3ccccc3NC2=O)CC1 (stereo unspecified) ; criterion: z-score no lower than 0.3. Met?
Reply: Not met

---

Assayed Target: Metabotropic glutamate receptor 8 (Rattus norvegicus)
Protocol Summary: mGluR8 Gi/Go-coupled signaling modulation – cell-based, rat, thallium flux, HTS, primary screen (AID 488969)
Setup Conditions: HEK293 rat mGluR8, GIRK thallium flux, FluoZin2; at 10 µM; stronger effect = higher value; submaximal glutamate (EC20) added with thallium
Whole data set: some 110,000 compounds, median “z-score” near -0.1, cut for the highest 2% near 2. Shown is part of a subset that was picked to be rich in the highest values.
// bucketize z-score: small value (below -0.2), mid value (-0.2 to below -0.09), large value (-0.09 or more)

compound=Cc1ccc(CNC(=O)c2ccccc2NS(C)(=O)=O)cc1 group="small value"
compound=CC(=O)c1ccc(NC(=O)CSc2ccc(-c3ccc4c(c3)OCO4)nn2)cc1 group="mid value"
compound=Cc1ccc(C(=O)NC(=S)Nc2ccccc2N2CCCC2)cc1[N+](=O)[O-] group="large value"
compound=CCc1cccc2c(C(=O)COC(=O)/C=C/c3ccc(O)c(OC)c3)c[nH]c12 group="large value"
compound=C=C(C)CNC(=S)Nc1cccc2cnccc12 group="large value"

Ask: Tag the class for O=C(NC(=S)Nc1ccc(N2CCCC2)cc1)c1ccccc1[N+](=O)[O-]
Reply: large value

Ask: Tag the class for CC1CCN(C(=S)NC2CCCCC2)CC1
Reply: mid value

Ask: Tag the class for COc1ccccc1NC(=S)Nc1cccc2cnccc12
Reply: mid value

Ask: Tag the class for Cc1c(C(=O)NC(=S)Nc2ccccc2N2CCCC2)cccc1[N+](=O)[O-]
Reply: large value

Ask: Tag the class for O=C(Nc1ccccc1N1CCOCC1)c1ccccc1[N+](=O)[O-]
Reply: mid value

Ask: Tag the class for O=C(COC(=O)c1ccc(-c2nnc(-c3ccccc3)o2)cc1)c1ccccc1
Reply: mid value

Ask: Tag the class for CCOc1ccc(C(=O)NC(Cc2ccccc2)C(=O)OC)cc1 (stereo unspecified)
Reply: small value

Ask: Tag the class for COc1ccc(CCNC(=O)Cc2cc(OC)c(OC)cc2[N+](=O)[O-])cc1OC
Reply: small value

---

Assayed Target: Metabotropic glutamate receptor 8 (Rattus norvegicus) (UniProt P70579)
Protocol Summary: mGluR8 Gi/Go-coupled signaling modulation – cell-based, rat, thallium flux, HTS, primary screen (AID 488969)
Setup Conditions: HEK293 rat mGluR8, GIRK thallium flux, FluoZin2; at 10 µM; stronger effect = higher value; submaximal glutamate (EC20) added with thallium
In all, about 110,000 compounds were measured (“z-score”: median about -0.1, highest 2% from about 2 on). What follows is part of a selection rich in the highest values, with near analogues and random picks from the rest.
Endpoint: z-score
Numbers only.

# return z-score for each item in the list
1. Cc1ccsc1/C=N/NC(=O)c1sccc1C
2. c1ccc(-n2nnnc2-n2ccnc2)cc1
3. COC(=O)c1cc(O)c(OCc2ccccc2)c(O)c1
4. COC(=O)c1sccc1NC(=S)N1CCN(c2ccccc2)CC1
5. COc1cc(/C=N/NC(=O)COc2ccc(Cl)cc2)ccc1OS(=O)(=O)c1ccc(C)cc1

Reply:
[5.91, 0.463, -0.276, -0.397, -0.0849]

# return z-score for each item in the list
1. CCC(Sc1nc2ccc(C)cc2[nH]1)C(=O)O (configuration not stated)
2. Cc1cccc(OCC(=O)Nc2ccc(N3CCN(C(=O)c4ccccc4)CC3)cc2)c1

Reply:
1. 0.179
2. -0.0735

---

Assayed Target: Metabotropic glutamate receptor 8 (Rattus norvegicus) (UniProt P70579)
Protocol Summary: mGluR8 Gi/Go-coupled signaling modulation – cell-based, rat, thallium flux, HTS, primary screen (AID 488969)
Setup Conditions: HEK293 rat mGluR8, GIRK thallium flux, FluoZin2; at 10 µM; stronger effect = higher value; submaximal glutamate (EC20) added with thallium
Over roughly 110,000 compounds, “z-score” has its median near -0.1; the highest 2% begin near 2. The full list was thinned out, with the highest values kept by preference.
Endpoint: z-score
Give bare numbers.

molecule="COc1ccc(C(=O)N2CCN(C3CCC(c4ccccc4)CC3)CC2)cc1OC (centres undefined)" recorded_result=-1.61
molecule=COc1ccc(N(C)S(=O)(=O)c2cccc(C(=O)OCC(=O)Nc3sc4c(c3C#N)CCCCC4)c2)cc1 recorded_result=0.379
molecule=CC(=O)/C=C/c1ccc2ccccc2n1 recorded_result=0.038

Value sought: z-score, system Metabotropic glutamate receptor 8 (Rattus norvegicus) (UniProt P70579), item COc1ccccc1CC(=O)N(CCC#N)CCC#N . Result: -0.512

---

Field: z-score. Provide a value for each of the compounds that follow.
Assayed Target: Metabotropic glutamate receptor 8 (Rattus norvegicus)
Protocol Summary: mGluR8 Gi/Go-coupled signaling modulation – cell-based, rat, thallium flux, HTS, primary screen (AID 488969)
Setup Conditions: HEK293 rat mGluR8, GIRK thallium flux, FluoZin2; at 10 µM; stronger effect = higher value; submaximal glutamate (EC20) added with thallium
Over roughly 110,000 compounds, “z-score” has its median near -0.1; the highest 2% begin near 2. Many of the other results were omitted from the sample, so the highest values are more common in it than they were.
Numbers only.

compound="Clc1ccc(C(c2ccccc2)N2CCNCC2)cc1 (stereo unspecified)" recorded_result=2.16

# return z-score for each item in the list
1. S=C(Nc1ccc(Cl)cc1Cl)Nc1ccccc1Oc1ccccc1
2. CCOC(=O)CSC1=Nc2ccccc2C2=NC(CC(=O)NCc3cccs3)C(=O)N12 (stereo unspecified)

Reply:
1. 4.54
2. 0.253

---

Assayed Target: Metabotropic glutamate receptor 8 (Rattus norvegicus)
Protocol Summary: mGluR8 Gi/Go-coupled signaling modulation – cell-based, rat, thallium flux, HTS, primary screen (AID 488969)
Setup Conditions: HEK293 rat mGluR8, GIRK (G protein-gated inwardly rectifying potassium channel) thallium flux, FluoZin2; at 10 µM; stronger effect = higher value; submaximal glutamate (EC20) added with thallium
Over roughly 110,000 compounds, “z-score” has its median near -0.1; the highest 2% begin near 2. This excerpt belongs to a sample that is enriched for the highest values.
Param threshold (0.2) applies to z-score; output Condition met when value >= threshold, Condition not met when value < threshold.

Worked examples, 3 molecules total:
molecule="CC(CCc1ccccc1)NC(=O)Cc1ccc([N+](=O)[O-])cc1 (stereo unspecified)" group="Condition not met"
molecule="COC(=O)CC(NC(=O)c1ccc(C)cc1)c1ccccc1 (stereo unspecified)" group="Condition not met"
molecule=O=C(CSc1nc(-c2ccco2)cc(C(F)(F)F)n1)NCCc1ccccc1 group="Condition not met"

Ask: Record O=C(CN1C(=O)/C(=C/c2ccccc2F)Oc2ccccc21)N1CCN(c2ccccn2)CC1 ; criterion: z-score no lower than 0.2. Met?
Reply: Condition met

Ask: Record Cc1sc(NC(=O)CSc2nnc(-c3ccc(F)cc3)o2)c(C#N)c1C ; criterion: z-score no lower than 0.2. Met?
Reply: Condition not met

Ask: Record Cc1nn(C)cc1NC(=O)CC12CC3CC(CC(C3)C1)C2 ; criterion: z-score no lower than 0.2. Met?
Reply: Condition not met

Ask: Record COC(=O)c1[nH]c2ccc(C)cc2c1NC(=O)CN1CCCC(C)(C)C1 ; criterion: z-score no lower than 0.2. Met?
Reply: Condition not met

Ask: Record CCN(CC)S(=O)(=O)c1cccc(NC(=O)COc2ccc(C#N)cc2OC)c1 ; criterion: z-score no lower than 0.2. Met?
Reply: Condition not met

Ask: Record CCCCNC(=S)NNC(=O)c1csc2c1CCC(C)C2 (stereo unspecified) ; criterion: z-score no lower than 0.2. Met?
Reply: Condition met

Ask: Record O=S(=O)(c1ccc(F)cc1)N1CCN(c2ncnc3c2cnn3-c2ccccc2)CC1 ; criterion: z-score no lower than 0.2. Met?
Reply: Condition met
